# subject of test: T1, GFP-9S library array, motif 4 ND N98V;D124K (synthetic construct, N98V;D124K)
# T1 chain: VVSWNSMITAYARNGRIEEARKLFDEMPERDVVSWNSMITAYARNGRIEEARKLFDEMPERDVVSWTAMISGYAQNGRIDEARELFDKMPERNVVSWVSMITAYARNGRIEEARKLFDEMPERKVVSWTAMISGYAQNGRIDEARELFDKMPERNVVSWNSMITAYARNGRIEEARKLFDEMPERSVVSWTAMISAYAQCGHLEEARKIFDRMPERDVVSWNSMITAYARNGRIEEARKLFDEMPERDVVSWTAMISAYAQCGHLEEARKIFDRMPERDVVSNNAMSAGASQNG
# assay method text: high-throughput RNA pulldown from lysate on Ni-NTA beads; HRP: 50 mM Tris pH 8, 150 mM NaCl, 1 mM beta-mercaptoethanol, 50 ug/ml BSA, 3 ug/ml yeast RNA, 0.5% heparin; ITC and FP: Tris pH 8, 200 mM KCl, 5% glycerol; MST: 50 mM Tris pH 8, 200 mM NaCl, 1 mM DTT, BSA, heparin, 0.05% Tween 20
# test conditions: tags: N-terminal His-eGFP; label: 5' IRDye 800CW
pKd: −log10 of the molar value.
// pKd lookup, one value per entry

{"binder": "AUUAUACGUGA (ssRNA) [IR-rpoA-U]", "pKd": 6.89}
{"binder": "AUUAAACGUGA (ssRNA) [IR-rpoA-A]", "pKd": 6.84}
